- Tested on: TYKNU
- Test: fractional viability relative to vehicle; higher = less growth inhibition
- Condition notes: 10uM; 72 h; genotype: sgCTRLA1 (non-targeting control)
Over roughly 2,000 compounds, “fractional viability relative to vehicle” has its median near 0.91; the lowest 2% begin near 0.045. Only a selection was taken, and the lowest values are over-represented in it overall.
Each entry below carries its reported fractional viability.
Please respond with just the number, no unit label.

Q. So what fractional viability did Cc1ccc(C(=O)Nc2ccc(CN3CCN(C)CC3)c(C(F)(F)F)c2)cc1C#Cc1cnc2cccnn12 get with TYKNU?
A. 0.0177

Q. So what fractional viability did CCN1CCN(Cc2ccc(C(=O)Nc3ccc(C)c(Oc4ccc5c(c4)CC(=O)N5)c3)cc2C(F)(F)F)CC1 get with TYKNU?
A. 0.756

Q. So what fractional viability did O=C(NNc1nc2cc(F)ccc2n2cccc12)c1cnccn1 get with TYKNU?
A. 0.247

Okay, now this molecule:
Q. So what fractional viability did Cc1ccc(NC(=O)c2ccc(CN3CC[C@H](N(C)C)C3)c(C(F)(F)F)c2)cc1Nc1nccc(-c2cncnc2)n1 get with TYKNU?
A. 0.0998

====

- System: TYKNU
- Test: fractional viability relative to vehicle; higher = less growth inhibition
- Condition notes: 2uM; 72 h; genotype: sgCTRLA1 (non-targeting control)
The full ranking holds about 2,000 compounds; the median of “fractional viability relative to vehicle” is about 0.91, and the lowest 2% start at about 0.045. The sample as a whole holds a higher share of the lowest values than the screen did.
Simple rule here: fractional viability less than 0.9 is TRUE, otherwise FALSE.

These solved cases illustrate the format of a correct answer.
Q. Identify whether the compound COc1ccc2c(c1)CCC1C2CCC2(C)C(NCCCCCCN3C(=O)C=CC3=O)CCC12 (centres undefined) records fractional viability below 0.9.
A. FALSE

Q. Identify whether the compound O=C(O)C1=C[C@@H](O)[C@@H](O)[C@H](O)C1 records fractional viability below 0.9.
A. FALSE

Q. Identify whether the compound CCCCCCCCCCCCCCCC[N+](C)(C)C [Cetrimonium Bromide (CTAB)] records fractional viability below 0.9.
A. TRUE

Q. Identify whether the compound C[N+](C)(C)CCO.[Cl-] [Choline Chloride] records fractional viability below 0.9.
A. FALSE

Q. Identify whether the compound Cc1cc(C)nc(NS(=O)(=O)c2ccc(NC(=S)NC(=O)COc3ccc(Br)cc3Cl)cc2)n1 records fractional viability below 0.9.
A. FALSE

Q. Identify whether the compound CCCCCCCCCCCCCCCCn1cc[n+](Cc2ccccc2)c1C records fractional viability below 0.9.
A. TRUE

Q. Identify whether the compound CN(C)Cc1cccc(N=C(c2ccccc2)c2c(O)[nH]c3cc(C(=O)N(C)C)ccc23)c1 records fractional viability below 0.9.
A. TRUE

Others:
Q. Identify whether the compound C[C@@]1(C(=O)Nc2ccc(F)nc2)CCCN1c1nc(Nc2cc(C3CC3)n[nH]2)c2cccn2n1 records fractional viability below 0.9.
A. TRUE

====

- Tested on: TYKNU
- Test: fractional viability relative to vehicle; TYKNU is a high-grade serous ovarian cancer line; higher = less growth inhibition
- Condition notes: 10uM; 72 h; genotype: sgCTRLA1 (non-targeting control)
Over roughly 2,000 compounds, “fractional viability relative to vehicle” has its median near 0.91; the lowest 2% begin near 0.045. The full list was thinned out, with the lowest values kept by preference.
Each entry below carries its reported fractional viability.
Please respond with just the number, no unit label.

Q. Consider the compound shown here: CCCc1cc2c(N3CCN(C4=NCC(C)(C)S4)CC3)ncnc2s1 What is its recorded fractional viability?
A. 0.665

Q. Consider the compound shown here: CC(=O)Oc1cc2c(s1)CCN(C(C(=O)C1CC1)c1ccccc1F)C2 (stereo not given) What is its recorded fractional viability?
A. 1.08

Q. Consider the compound shown here: CNCc1ccc(-c2cc(-c3nc(-c4ccc(S(=O)(=O)C(C)C)cc4)cnc3N)on2)cc1 What is its recorded fractional viability?
A. 1.1

Others:
Q. Consider the compound shown here: C[C@@H](Nc1cc(F)cc(F)c1)c1cc(C(=O)N(C)C)cc2c(=O)cc(N3CCOCC3)oc12 What is its recorded fractional viability?
A. 0.566

Q. Consider the compound shown here: Cc1ncc([N+](=O)[O-])n1CC(O)CCl (stereo not given) What is its recorded fractional viability?
A. 1.37
